Target: Upc2 (UniProt Q12151)
Sequence: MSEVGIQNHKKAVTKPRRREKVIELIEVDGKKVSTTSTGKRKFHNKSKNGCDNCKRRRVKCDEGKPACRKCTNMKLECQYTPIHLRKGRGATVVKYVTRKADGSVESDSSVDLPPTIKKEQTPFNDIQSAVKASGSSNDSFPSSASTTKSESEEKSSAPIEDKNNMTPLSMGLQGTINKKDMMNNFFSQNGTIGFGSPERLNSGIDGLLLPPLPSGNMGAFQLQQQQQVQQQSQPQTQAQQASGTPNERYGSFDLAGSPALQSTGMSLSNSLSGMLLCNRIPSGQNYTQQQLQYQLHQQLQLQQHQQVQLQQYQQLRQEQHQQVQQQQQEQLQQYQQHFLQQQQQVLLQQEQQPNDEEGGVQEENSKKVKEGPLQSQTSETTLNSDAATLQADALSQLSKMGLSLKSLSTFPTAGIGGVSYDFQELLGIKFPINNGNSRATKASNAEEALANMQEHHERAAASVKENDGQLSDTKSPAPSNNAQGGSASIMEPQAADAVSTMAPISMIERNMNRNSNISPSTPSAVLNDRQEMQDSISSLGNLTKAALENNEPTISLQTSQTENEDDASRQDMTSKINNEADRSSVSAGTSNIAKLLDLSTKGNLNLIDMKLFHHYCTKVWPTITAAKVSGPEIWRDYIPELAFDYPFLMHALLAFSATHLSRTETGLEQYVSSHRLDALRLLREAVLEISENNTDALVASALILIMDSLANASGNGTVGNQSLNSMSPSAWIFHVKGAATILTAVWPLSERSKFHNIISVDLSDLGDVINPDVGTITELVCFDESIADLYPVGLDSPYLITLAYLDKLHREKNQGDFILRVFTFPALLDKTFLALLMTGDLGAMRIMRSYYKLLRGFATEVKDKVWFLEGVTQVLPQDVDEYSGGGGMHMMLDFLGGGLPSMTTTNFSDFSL
Assay: PBM E-score (8-mer binding enrichment) (E-score (-0.5 to 0.5)); higher = stronger / more preferred TF binding
Details: protein concentration: 200 nM; construct: GST-full length
Whole data set: some 33,000 sequences, median “E-score (-0.5 to 0.5)” near -0.043, cut for the highest 2% near 0.37. The entries come from a sample that favours the highest values as a whole.
Label rule, in plain words: PBM E-score of 0.03 and up is 1.0, under 0.03 is 0.0.

Macromolecule sequence: AATGCAGA
System tested: Upc2 (UniProt Q12151)
Category label: 0.0
//
Macromolecule sequence: CTCGAGCC
System tested: Upc2 (UniProt Q12151)
Category label: 1.0
//
Macromolecule sequence: CGTCGAAC
System tested: Upc2 (UniProt Q12151)
Category label: 1.0
//
Macromolecule sequence: TAATCGTA
System tested: Upc2 (UniProt Q12151)
Category label: 1.0
//
Macromolecule sequence: CGGGCCAA
System tested: Upc2 (UniProt Q12151)
Category label: 0.0
//
Macromolecule sequence: ACATTCGT
System tested: Upc2 (UniProt Q12151)
Category label: 1.0

###

Target: Upc2 (UniProt Q12151)
Sequence: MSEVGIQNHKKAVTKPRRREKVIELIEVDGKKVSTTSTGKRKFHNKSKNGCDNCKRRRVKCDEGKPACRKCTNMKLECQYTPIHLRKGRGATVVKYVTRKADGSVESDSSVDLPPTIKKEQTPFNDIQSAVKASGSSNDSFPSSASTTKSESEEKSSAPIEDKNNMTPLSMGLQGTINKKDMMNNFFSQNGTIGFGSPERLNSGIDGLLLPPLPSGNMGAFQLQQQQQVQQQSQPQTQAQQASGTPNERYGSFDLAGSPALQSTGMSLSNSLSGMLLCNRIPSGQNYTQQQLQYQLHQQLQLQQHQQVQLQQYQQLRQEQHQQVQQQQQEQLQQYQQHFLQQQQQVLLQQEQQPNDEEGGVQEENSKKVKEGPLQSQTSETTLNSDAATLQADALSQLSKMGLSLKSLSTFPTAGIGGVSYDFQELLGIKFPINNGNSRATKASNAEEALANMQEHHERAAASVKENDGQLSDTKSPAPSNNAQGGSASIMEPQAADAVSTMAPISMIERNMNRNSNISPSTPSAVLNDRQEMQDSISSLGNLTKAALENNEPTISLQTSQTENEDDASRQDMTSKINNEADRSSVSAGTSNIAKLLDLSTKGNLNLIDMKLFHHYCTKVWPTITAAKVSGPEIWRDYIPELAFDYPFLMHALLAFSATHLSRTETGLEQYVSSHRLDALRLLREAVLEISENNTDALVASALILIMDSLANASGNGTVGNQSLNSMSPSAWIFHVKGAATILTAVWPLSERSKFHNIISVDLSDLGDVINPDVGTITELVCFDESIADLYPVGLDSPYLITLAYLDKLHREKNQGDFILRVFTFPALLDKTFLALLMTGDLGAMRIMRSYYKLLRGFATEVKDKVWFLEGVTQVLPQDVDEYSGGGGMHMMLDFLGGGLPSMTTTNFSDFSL
Assay: PBM E-score (8-mer binding enrichment) (E-score (-0.5 to 0.5)); higher = stronger / more preferred TF binding
Conditions: protein concentration: 200 nM; construct: GST-full length
The full ranking holds about 33,000 sequences; the median of “E-score (-0.5 to 0.5)” is about -0.043, and the highest 2% start at about 0.37. Many of the other results were omitted from the sample, so the highest values are more common in it than they were.
List of PBM E-score values.
Endpoint: PBM E-score

Macromolecule sequence: GGCTATAC
Measurement: 0.299
//
Macromolecule sequence: AACGAGAA
Measurement: 0.422
//
Macromolecule sequence: CAGATCAC
Measurement: -0.266
//
Macromolecule sequence: TAAAGCCA
Measurement: 0.0825
//
Macromolecule sequence: AACGAGAT
Measurement: 0.417
//
Macromolecule sequence: ATATACCG
Measurement: 0.194
//
Macromolecule sequence: ATATACTC
Measurement: -0.0113
//
Macromolecule sequence: ACCCTGGA
Measurement: -0.0506
//
Macromolecule sequence: TTCGAGAA
Measurement: 0.109
//
Macromolecule sequence: ATCGTTAA
Measurement: 0.435
//
Macromolecule sequence: CGAACGAA
Measurement: 0.398
//
Macromolecule sequence: CGTACGGC
Measurement: 0.381
//
Macromolecule sequence: ATCGAGAT
Measurement: -0.0275
//
Macromolecule sequence: ATATACAA
Measurement: -0.0498
//
Macromolecule sequence: CGGGGGGC
Measurement: 0.063
//
Macromolecule sequence: CTCGTTAA
Measurement: 0.466
//
Macromolecule sequence: CGAACGTC
Measurement: 0.135
//
Macromolecule sequence: ATGGACCA
Measurement: 0.0213
//
Macromolecule sequence: ACCTATCA
Measurement: -0.11
//
Macromolecule sequence: CGAACAAA
Measurement: 0.183
//
Macromolecule sequence: AGGAACGG
Measurement: 0.322
//
Macromolecule sequence: ATTTATAC
Measurement: 0.41
//
Macromolecule sequence: ATATACCA
Measurement: 0.0254
//
Macromolecule sequence: GGATCGGA
Measurement: 0.0439
//
Macromolecule sequence: CACGAGAA
Measurement: 0.0693
//
Macromolecule sequence: CGGAACGA
Measurement: 0.468
//
Macromolecule sequence: CCGAGCTC
Measurement: 0.197
//
Macromolecule sequence: ACATAACG
Measurement: 0.116
//
Macromolecule sequence: GTCGTTAA
Measurement: 0.465
//
Macromolecule sequence: GCGAAAAA
Measurement: 0.148
//
Macromolecule sequence: TACATCGA
Measurement: 0.038
//
Macromolecule sequence: GTAACGAC
Measurement: 0.326
//
Macromolecule sequence: TCCGAGAA
Measurement: 0.248
//
Macromolecule sequence: CTATACTC
Measurement: 0.0215
//
Macromolecule sequence: AGCTATAC
Measurement: 0.309
//
Macromolecule sequence: ATCGTTAC
Measurement: 0.264
//
Macromolecule sequence: ACGAGCTA
Measurement: 0.394
//
Macromolecule sequence: ATGTCTCA
Measurement: -0.192
//
Macromolecule sequence: CATGTTAA
Measurement: 0.0636
//
Macromolecule sequence: CCGAGCTA
Measurement: 0.0202
//
Macromolecule sequence: CGGAACGC
Measurement: 0.243
//
Macromolecule sequence: GGTCCCCA
Measurement: -0.24
//
Macromolecule sequence: CTATATAC
Measurement: 0.358
//
Macromolecule sequence: GGATCGTA
Measurement: 0.422
//
Macromolecule sequence: GCGAGCTA
Measurement: 0.207
//
Macromolecule sequence: ATACGAGC
Measurement: 0.489
//
Macromolecule sequence: TACGAGAA
Measurement: 0.447
//
Macromolecule sequence: AGATCGTC
Measurement: -0.141
//
Macromolecule sequence: AGGAACGA
Measurement: 0.449
//
Macromolecule sequence: ATATACGC
Measurement: 0.387
//
Macromolecule sequence: CAGAATTC
Measurement: -0.03
//
Macromolecule sequence: CACGTTAA
Measurement: 0.131
//
Macromolecule sequence: AGCAAGAG
Measurement: -0.203
//
Macromolecule sequence: GACGAGAA
Measurement: 0.0864
//
Macromolecule sequence: AGAGGCAC
Measurement: -0.00593
//
Macromolecule sequence: ATTTATAA
Measurement: 0.0439
//
Macromolecule sequence: AGCGTACG
Measurement: 0.354
//
Macromolecule sequence: AACGAGAG
Measurement: 0.425
//
Macromolecule sequence: CTATAATA
Measurement: -0.055
//
Macromolecule sequence: ATCTATAC
Measurement: 0.287
//
Macromolecule sequence: CGATCGAA
Measurement: 0.24
//
Macromolecule sequence: CGTTATAC
Measurement: 0.367
//
Macromolecule sequence: ATTGGGAC
Measurement: -0.218
//
Macromolecule sequence: CGCTATAC
Measurement: 0.392
//
Macromolecule sequence: ATTTGCTG
Measurement: 0.0559
//
Macromolecule sequence: GGGAACGA
Measurement: 0.466
//
Macromolecule sequence: AGATCGTA
Measurement: 0.387
